Target: Bromodomain-containing protein 4 (Homo sapiens, UniProt O60885)
Assay: Inhibition of BRD4 BD1 (57 to 168 residues) (unknown origin) transfected in Escherichia coli (DE3) using FAM-labeled JQ-1 as fluorescent substrate at 100 uM incubated for 30 mins by competitive fluorescence polarization method relative to control
// reported inhibition for each item listed
Numeric answer only, unit % assumed.

substanceSmiles	inhibition, %
CCOc1ccc(-c2nc(SCc3ccccc3Cl)[nH]c(=O)c2C#N)cc1OCC	56.8
N#Cc1c(-c2ccc3c(c2)OCCO3)nc(SCc2ccccc2Cl)[nH]c1=O	55.5
COc1cc(-c2nc(SCc3ccccc3Cl)[nH]c(=O)c2C#N)ccc1OC(F)F	54.4

Q. Any idea what inhibition came out for COc1cc(-c2nc(SCc3ccccc3Cl)[nH]c(=O)c2C#N)cc(Cl)c1OC on Bromodomain-containing protein 4 (Homo sapiens, UniProt O60885)?
A. 59.7

Q. Any idea what inhibition came out for CNC(=O)c1cccc(-c2nc(SCc3ccccc3Cl)[nH]c(=O)c2C#N)c1 on Bromodomain-containing protein 4 (Homo sapiens, UniProt O60885)?
A. 66.4

* * *

// reported inhibition for each item listed
Target: Bromodomain-containing protein 4 (Homo sapiens, UniProt O60885)
Test: Inhibition of BRD4 BD1 (57 to 168 residues) (unknown origin) transfected in Escherichia coli (DE3) using FAM-labeled JQ-1 as fluorescent substrate at 100 uM incubated for 30 mins by competitive fluorescence polarization method relative to control
Numeric answer only, unit % assumed.

substanceSmiles	inhibition, %
N#Cc1c(-c2ccc(OC(F)(F)F)cc2)nc(SCc2ccccc2Cl)[nH]c1=O	45.8
COc1ccc(-c2nc(SCc3ccccc3Cl)[nH]c(=O)c2C#N)cc1C	53.1
CCOc1ccc(-c2nc(SCc3ccccc3Cl)[nH]c(=O)c2C#N)cc1OC	64.7
COc1ccccc1-c1nc(SCc2ccccc2Cl)[nH]c(=O)c1C#N	44.3
COc1ccc(OC)c(-c2nc(SCc3ccccc3Cl)[nH]c(=O)c2C#N)c1	51.6
COc1cc(OC)cc(-c2nc(SCc3ccccc3Cl)[nH]c(=O)c2C#N)c1	40.3
COc1ccc(-c2nc(SCc3ccccc3Cl)[nH]c(=O)c2C#N)cc1OC	65.1
COc1cc(-c2nc(SCc3ccccc3Cl)[nH]c(=O)c2C#N)cc(OC)c1OC	84.7
N#Cc1c(O)nc(SCc2ccccc2Cl)nc1-c1ccccc1	47

Q. Any idea what inhibition came out for COc1cccc(-c2nc(SCc3ccccc3Cl)[nH]c(=O)c2C#N)c1 on Bromodomain-containing protein 4 (Homo sapiens, UniProt O60885)?
A. 45.3

* * *

// reported inhibition for each item listed
Target: Bromodomain-containing protein 4 (Homo sapiens, UniProt O60885)
Experiment: Inhibition of BRD4 BD2 (352 to 457 residues) (unknown origin) transfected in Escherichia coli (DE3) using FAM-labeled JQ-1 as fluorescent substrate at 50 uM incubated for 30 mins by competitive fluorescence polarization method relative to control
Numeric answer only, unit % assumed.

Q. Item COc1ccc(CNC(=O)C2CCCN(c3nc4c(-c5ccc(C)cc5)csc4c(=O)[nH]3)C2)cc1 (configuration not stated) has what recorded inhibition?
A. 29.7

Q. Item COc1ccccc1NS(=O)(=O)c1cc(-c2n[nH]c(=O)c3ccccc23)ccc1C has what recorded inhibition?
A. 21.7

Q. Item Oc1ccc(-c2[nH]c(-c3ccccc3O)nc2-c2ccccc2)cc1 has what recorded inhibition?
A. 17.2

Q. Item Cc1cccc(OCc2occc2C(=O)N(C)Cc2cc(O)nc3ccccc23)c1 has what recorded inhibition?
A. 15.1

Q. Item COc1cccc(-c2cc(=O)[nH]c(N3CCN(c4ccccc4)CC3)n2)c1 has what recorded inhibition?
A. 41.7

Q. Item Cc1cc2nc(SCC(=O)N(C)c3cccc(Cl)c3)[nH]c(=O)c2[nH]1 has what recorded inhibition?
A. 17.2

Q. Item N#Cc1c(O)nc(SCc2ccccc2Cl)nc1-c1ccccc1 has what recorded inhibition?
A. 83.5

* * *

Target: Bromodomain-containing protein 4 (Homo sapiens)
Assay: Inhibition of BRD4 BD2 (352 to 457 residues) (unknown origin) transfected in Escherichia coli (DE3) using FAM-labeled JQ-1 as fluorescent substrate at 5 uM incubated for 30 mins by competitive fluorescence polarization method relative to control
reportedProperty: inhibition

Solved entries (count: 4):
compound	inhibition
COc1cccc(-c2cc(=O)[nH]c(N3CCN(c4ccccc4)CC3)n2)c1	11%
Oc1ccc(-c2[nH]c(-c3ccccc3O)nc2-c2ccccc2)cc1	3.96%
Cc1cccc(OCc2occc2C(=O)N(C)Cc2cc(O)nc3ccccc23)c1	4.71%
COc1ccc(CNC(=O)C2CCCN(c3nc4c(-c5ccc(C)cc5)csc4c(=O)[nH]3)C2)cc1 (configuration not stated)	3.8%

Q. Item Cc1cc2nc(SCC(=O)N(C)c3cccc(Cl)c3)[nH]c(=O)c2[nH]1 has what recorded inhibition?
A. 3.96%

Q. Item N#Cc1c(O)nc(SCc2ccccc2Cl)nc1-c1ccccc1 has what recorded inhibition?
A. 19.3%

Q. Item COc1ccccc1NS(=O)(=O)c1cc(-c2n[nH]c(=O)c3ccccc23)ccc1C has what recorded inhibition?
A. 1.26%

* * *

Target: Bromodomain-containing protein 4 (Homo sapiens)
Assay: Inhibition of BRD4 BD1 (57 to 168 residues) (unknown origin) transfected in Escherichia coli (DE3) using FAM-labeled JQ-1 as fluorescent substrate at 100 uM incubated for 30 mins by competitive fluorescence polarization method relative to control
reportedProperty: inhibition
Please format your answer as a value with the unit trailing.

Solved entries (count: 6):
substanceSmiles	target	reportedProperty	testValue
COc1ccc(-c2nc(SCc3ccccc3Cl)[nH]c(=O)c2C#N)c(OC)c1OC	Bromodomain-containing protein 4 (Homo sapiens)	inhibition	53.1%
COc1cc(-c2nc(SCc3ccccc3Cl)[nH]c(=O)c2C#N)cc(O)c1OC	Bromodomain-containing protein 4 (Homo sapiens)	inhibition	69.3%
COc1ccc(-c2nc(SCc3ccccc3Cl)[nH]c(=O)c2C#N)cc1	Bromodomain-containing protein 4 (Homo sapiens)	inhibition	44.1%
CCOc1cc(-c2nc(SCc3ccccc3Cl)[nH]c(=O)c2C#N)ccc1OC	Bromodomain-containing protein 4 (Homo sapiens)	inhibition	65.3%
N#Cc1c(-c2ccc3c(c2)OCO3)nc(SCc2ccccc2Cl)[nH]c1=O	Bromodomain-containing protein 4 (Homo sapiens)	inhibition	45.3%
COC(=O)c1cc(-c2nc(SCc3ccccc3Cl)[nH]c(=O)c2C#N)ccc1OC	Bromodomain-containing protein 4 (Homo sapiens)	inhibition	42.9%

Q. Item COc1cccc(-c2nc(SCc3ccccc3Cl)[nH]c(=O)c2C#N)c1OC has what recorded inhibition?
A. 50.7%

* * *

Biological target: Bromodomain-containing protein 4 (Homo sapiens, UniProt O60885)
Assay: Inhibition of BRD4 BD2 (352 to 457 residues) (unknown origin) transfected in Escherichia coli (DE3) using FAM-labeled JQ-1 as fluorescent substrate at 100 uM incubated for 30 mins by competitive fluorescence polarization method relative to control
reportedProperty: inhibition
Please format your answer as a value with the unit trailing.

Solved entries (count: 3):
substanceSmiles	inhibition
COc1cc(-c2nc(SCc3ccccc3Cl)[nH]c(=O)c2C#N)cc(O)c1OC	63.4%
COc1ccc(-c2nc(SCc3ccccc3Cl)[nH]c(=O)c2C#N)cc1OC	68.7%
CCOc1ccc(-c2nc(SCc3ccccc3Cl)[nH]c(=O)c2C#N)cc1OCC	55.9%

Q. Item COc1cc(-c2nc(SCc3ccccc3Cl)[nH]c(=O)c2C#N)ccc1OC(F)F has what recorded inhibition?
A. 59.2%

Q. Item COc1ccc(-c2nc(SCc3ccccc3Cl)[nH]c(=O)c2C#N)cc1 has what recorded inhibition?
A. 18.8%

Q. Item COc1ccccc1-c1nc(SCc2ccccc2Cl)[nH]c(=O)c1C#N has what recorded inhibition?
A. 47.5%

Q. Item COc1cc(-c2nc(SCc3ccccc3Cl)[nH]c(=O)c2C#N)cc(OC)c1OC has what recorded inhibition?
A. 74.3%

Q. Item CNC(=O)c1cccc(-c2nc(SCc3ccccc3Cl)[nH]c(=O)c2C#N)c1 has what recorded inhibition?
A. 65.9%

Q. Item COC(=O)c1cc(-c2nc(SCc3ccccc3Cl)[nH]c(=O)c2C#N)ccc1OC has what recorded inhibition?
A. 48%

Q. Item N#Cc1c(O)nc(SCc2ccccc2Cl)nc1-c1ccccc1 has what recorded inhibition?
A. 46.5%

Q. Item COc1ccc(-c2nc(SCc3ccccc3Cl)[nH]c(=O)c2C#N)c(OC)c1OC has what recorded inhibition?
A. 51.7%

Q. Item COc1ccc(-c2nc(SCc3ccccc3Cl)[nH]c(=O)c2C#N)cc1C has what recorded inhibition?
A. 55.1%

Q. Item N#Cc1c(-c2ccc(OC(F)(F)F)cc2)nc(SCc2ccccc2Cl)[nH]c1=O has what recorded inhibition?
A. 17.1%

Q. Item COc1cccc(-c2nc(SCc3ccccc3Cl)[nH]c(=O)c2C#N)c1OC has what recorded inhibition?
A. 51.3%

Q. Item COc1ccc(OC)c(-c2nc(SCc3ccccc3Cl)[nH]c(=O)c2C#N)c1 has what recorded inhibition?
A. 43%

Q. Item N#Cc1c(-c2ccc3c(c2)OCO3)nc(SCc2ccccc2Cl)[nH]c1=O has what recorded inhibition?
A. 44.3%

Q. Item COc1cc(-c2nc(SCc3ccccc3Cl)[nH]c(=O)c2C#N)cc(Cl)c1OC has what recorded inhibition?
A. 59.6%

Q. Item N#Cc1c(-c2ccc3c(c2)OCCO3)nc(SCc2ccccc2Cl)[nH]c1=O has what recorded inhibition?
A. 53.8%

Q. Item CCOc1ccc(-c2nc(SCc3ccccc3Cl)[nH]c(=O)c2C#N)cc1OC has what recorded inhibition?
A. 55.7%

Q. Item COc1cc(OC)cc(-c2nc(SCc3ccccc3Cl)[nH]c(=O)c2C#N)c1 has what recorded inhibition?
A. 47.2%

Q. Item CCOc1cc(-c2nc(SCc3ccccc3Cl)[nH]c(=O)c2C#N)ccc1OC has what recorded inhibition?
A. 62.4%

Q. Item COc1cccc(-c2nc(SCc3ccccc3Cl)[nH]c(=O)c2C#N)c1 has what recorded inhibition?
A. 45.1%
